# TARGET_SYSTEM: TRPML1 (Homo sapiens)
# Sequence (Q9GZU1 17-572 limits assumed): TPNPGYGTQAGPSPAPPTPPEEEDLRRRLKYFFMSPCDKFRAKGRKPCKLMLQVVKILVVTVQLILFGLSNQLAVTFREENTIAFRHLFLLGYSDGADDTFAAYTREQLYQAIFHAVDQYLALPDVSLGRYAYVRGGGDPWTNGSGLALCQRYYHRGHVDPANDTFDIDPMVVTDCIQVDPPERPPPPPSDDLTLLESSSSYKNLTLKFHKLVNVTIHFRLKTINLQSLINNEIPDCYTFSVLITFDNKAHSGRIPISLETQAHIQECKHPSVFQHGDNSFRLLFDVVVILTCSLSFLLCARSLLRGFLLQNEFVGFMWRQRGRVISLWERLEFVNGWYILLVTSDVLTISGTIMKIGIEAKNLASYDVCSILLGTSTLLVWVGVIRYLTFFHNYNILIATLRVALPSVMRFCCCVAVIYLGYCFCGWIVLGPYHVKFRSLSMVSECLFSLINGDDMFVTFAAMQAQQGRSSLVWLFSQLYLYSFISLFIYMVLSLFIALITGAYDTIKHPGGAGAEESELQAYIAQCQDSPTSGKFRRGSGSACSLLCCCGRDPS
# ASSAY_COMMENT: Calcium flux in HEK293 overexpressing TRPML1 plasma membrane variant (FLIPR, Calcium 6 dye)
# DETAILS: HEK293/TRPML1-PM clone A5 cells; 4-parameter logistic fit; read-out: TRPML1 calcium flux (FLIPR) dose response: EC50
Measured pEC50 of individual entries
Reminder that pEC50 means the negative base-10 logarithm of the concentration expressed in mol/L.

Check out these entries, answers already filled in.
COCC1(C)CCC(N(C)c2ccccc2NS(=O)(=O)c2ccc(S(=O)(=O)N(C)C)cc2)CC1 (stereo not shown); 6.09
COCC1(C)CCC(CN(C)c2ccccc2NS(=O)(=O)c2ccc(S(=O)(=O)N(C)C)cc2)CC1 (stereo not shown); 6.38
CN(c1ccccc1NS(=O)(=O)c1ccc(S(=O)(=O)N(C)C)cc1)C1CCC1; 6.12
Cc1cccc(NS(=O)(=O)c2ccc(S(=O)(=O)N(C)C)cc2)c1N(C)Cc1cncs1; 6.24
CN(CCC1CCOCC1)c1ccccc1NS(=O)(=O)c1ccc(S(=O)(=O)N(C)C)cc1; 5.40

Query block: For TRPML1 (Homo sapiens), provide pEC50 of CN(CC1CCCCC1)c1ccccc1NS(=O)(=O)c1ccc(S(=O)(=O)N(C)C)cc1 please.
Result block: 6.39

Query block: Could you do the same for Cc1cccc(N(C)C2CCCCC2)c1NS(=O)(=O)c1ccc(S(=O)(=O)N(C)C)cc1 , please?
Result block: 5.66

Query block: Could you do the same for CN(C)S(=O)(=O)c1ccc(S(=O)(=O)Nc2ccccc2N(C(=O)C(F)(F)F)C2CCCCC2)cc1 , please?
Result block: 4.96

Query block: Could you do the same for CN(Cc1ccsc1)c1ccccc1NS(=O)(=O)c1ccc(S(=O)(=O)N(C)C)cc1 , please?
Result block: 6.17

Query block: Could you do the same for CN(c1ccc(Cl)cc1NS(=O)(=O)c1ccc(S(=O)(=O)N(C)C)cc1)C1CCCCC1 , please?
Result block: 5.91

Query block: Could you do the same for CN(c1ccc(C#N)cc1NS(=O)(=O)c1ccc(S(=O)(=O)N(C)C)cc1)C1CCCCC1 , please?
Result block: 6.17

Query block: Could you do the same for CN(c1ccccc1NS(=O)(=O)c1ccc(S(=O)(=O)N(C)C)cc1)C1CCOC2(CCC2)C1 (stereo not shown) , please?
Result block: 6.08

Query block: Could you do the same for CN(c1ccccc1NS(=O)(=O)c1ccc(S(=O)(=O)N(C)C)cc1)C1CCCCC1 , please?
Result block: 6.56

Query block: Could you do the same for CN(CC1(C)CCOCC1)c1ccccc1NS(=O)(=O)c1ccc(S(=O)(=O)N(C)C)cc1 , please?
Result block: 6.06
